# tested.on: EGFR (form in the assay not stated) (human, UniProt P00533 25-645, limits assumed)
# procedure.details: ELISA, NEM conjugate 500 nM
binding ratio vs parent P54AR4-83v2 vs 0.9 ratio: at or above is Yes, below is No.

[[record]]
binder = "P54AR4-83v2 P50C, NEM conjugate (designed binder, NEM on Cys 50, His-tagged) LPAPKNLVVSEVTEDSARLSWDDPWAFYESFLIQYQESEKVGEAIVLTVCGSERSYDLTGLKPGTEYTVSIYGVHNVYKDTNMRGLPLSAIFTT"
classification = "Yes"

[[record]]
binder = "P54AR4-83v2 K40C, NEM conjugate (designed binder, NEM on Cys 40, His-tagged) LPAPKNLVVSEVTEDSARLSWDDPWAFYESFLIQYQESECVGEAIVLTVPGSERSYDLTGLKPGTEYTVSIYGVHNVYKDTNMRGLPLSAIFTT"
classification = "No"

[[record]]
binder = "P54AR4-83v2 A26C, NEM conjugate (designed binder, NEM on Cys 26, His-tagged) LPAPKNLVVSEVTEDSARLSWDDPWCFYESFLIQYQESEKVGEAIVLTVPGSERSYDLTGLKPGTEYTVSIYGVHNVYKDTNMRGLPLSAIFTT"
classification = "Yes"

[[record]]
binder = "P54AR4-83v2 V77C, NEM conjugate (designed binder, NEM on Cys 77, His-tagged) LPAPKNLVVSEVTEDSARLSWDDPWAFYESFLIQYQESEKVGEAIVLTVPGSERSYDLTGLKPGTEYTVSIYGVHNCYKDTNMRGLPLSAIFTT"
classification = "No"

[[record]]
binder = "P54AR4-83v2 E11C, NEM conjugate (designed binder, NEM on Cys 11, His-tagged) LPAPKNLVVSCVTEDSARLSWDDPWAFYESFLIQYQESEKVGEAIVLTVPGSERSYDLTGLKPGTEYTVSIYGVHNVYKDTNMRGLPLSAIFTT"
classification = "Yes"

